experiment: qHTS assay for small molecule agonists of the antioxidant response element (ARE) signaling pathway (AID 651741); details: HepG2 ARE-bla reporter, beta-lactamase FRET ratio, 16 h; series mostly up to 96 µM; for activation: % of control where 0% means no effect
Records with an inconclusive call do not appear. The source made the active and inactive calls. Calls come from the whole dose curve; as a rule, active = well fitted activation curve with a large enough effect in the signal ratio; inconclusive = small, poorly fitted or top-dose-only effect, or effect the other way, or a change in a side signal; inactive = flat fitted curve, though single readings scatter; the % refers to the signal ratio.
Please reply with one of these outcomes: y = active, n = inactive

Before answering, review these 2 worked examples.
molecule: O=C1CCCCCCCCCCC1
label: n

molecule: CCCCCCCC(=O)OC
label: n

# lookup: test call for `Cc1ccc(N=Nc2c(O)ccc3ccccc23)c(C)c1`
y

Hey, what did the test say about `C=CCOC(=O)CC(C)C` ?
n

Which outcome was entered for the molecule `C[Si](C)(Cl)[Si](C)(C)Cl` in this test?
n

###

assay: qHTS assay for small molecule antagonists of peroxisome proliferator-activated receptor delta signaling (AID 588535); settings: HEK293T PPARd-UAS-bla, beta-lactamase FRET ratio, 18 h; 460 nm channel;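 note: cells co-treated with a PPAR-delta agonist as stimulator during compound exposure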
Records with an inconclusive call do not appear.
readout.label: max response (%)
Supply the numeric figure in %, leaving out any unit text.

# count of solved cases: 8
compound: CC(=O)N(CCN(C(C)=O)C(C)=O)C(C)=O
max response (%): 30.1
--
compound: COc1ccccc1NC(=O)CC(C)=O
max response (%): 49.4
--
compound: CC(=O)Nc1ccc(N=Nc2cc(C)ccc2O)cc1
max response (%): 14
--
compound: CC(=O)/C=C/C1C(C)=CCCC1(C)C (centres undefined)
max response (%): -18.3
--
compound: C=C(C)C(=O)OCCC[Si](OC)(OC)OC
max response (%): 51.6
--
compound: CCCCOCCOCCOC(=O)CCCCC(=O)OCCOCCOCCCC
max response (%): 22.3
--
compound: CO[Si](CCCOCC1CO1)(OC)OC (centres undefined)
max response (%): 37.6
--
compound: COCCOCCOCCO
max response (%): 7.14

Which max response is listed for `O=C(c1ccccc1)c1ccc(O)c(O)c1O` ?
45.6

Quick check: max response of `CCCCCCOCCOCCO` ?
-32.9

# query: max response of entry `C=CCOC(=O)CC(C)C`
13

If you can, please state the reported max response value of `CCSC(=O)N(CC(C)C)CC(C)C` .
-16.2

Look at this compound and give its reported max response. `CC(Cl)(Cl)C(=O)OCCOc1cc(Cl)c(Cl)cc1Cl`
-5.22

###

target: Cytochrome P450 3A4 (Homo sapiens) (UniProt P08684); test: qHTS Assay for Activators of Cytochrome P450 3A4 (AID 885); conditions: recombinant CYP3A4, Luciferin-PPXE luminescence, 60 min; series mostly up to 57.1 µM; note: nearly all actives have a fitted effect of over 65% in size
Sequence (P08684 whole entry, looked up): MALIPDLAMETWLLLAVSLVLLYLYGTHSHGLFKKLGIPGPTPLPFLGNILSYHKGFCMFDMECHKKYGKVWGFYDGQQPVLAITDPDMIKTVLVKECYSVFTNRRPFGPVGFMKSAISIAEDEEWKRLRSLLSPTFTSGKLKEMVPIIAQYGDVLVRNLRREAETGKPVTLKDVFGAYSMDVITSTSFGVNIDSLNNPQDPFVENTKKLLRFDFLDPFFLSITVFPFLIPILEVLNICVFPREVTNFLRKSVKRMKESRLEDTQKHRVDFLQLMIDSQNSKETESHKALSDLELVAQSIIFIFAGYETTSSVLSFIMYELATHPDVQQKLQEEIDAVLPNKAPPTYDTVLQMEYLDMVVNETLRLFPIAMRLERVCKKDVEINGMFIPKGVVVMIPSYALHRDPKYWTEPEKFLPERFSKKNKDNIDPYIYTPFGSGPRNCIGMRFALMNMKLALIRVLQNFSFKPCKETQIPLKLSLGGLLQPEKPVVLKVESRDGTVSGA
Active and inactive are the calls of the source. Calls come from the whole dose curve; as a rule, active = well fitted activation curve with a large enough effect; inconclusive = small, poorly fitted or top-dose-only effect; inactive = no such curve, though single readings can be large or run the other way.
readout.label: activity change, positive = activation

# example entries with known answers
molecule: COC(=O)c1cccc(C23CC4(C2)[C@H](CN(Cc2ccc(-c5ccccc5)cc2)[C@@H]4c2ccccc2)C3c2ccc(C(F)(F)F)cc2)c1 (stereo partly drawn)
activity change, positive = activation: inactive

molecule: CN(C)c1ccc(CNC(=O)C2(C)C=CCN2C(=O)c2ccccc2)cc1 (stereo not drawn)
activity change, positive = activation: inactive

molecule: Cc1ccc(/C=C/C2=CC3(C)CC2(C)C(c2ccc(C)cc2)CC3=O)cc1 (stereo not drawn)
activity change, positive = activation: -95.3% [at 11.4 µM] (inactive)

molecule: COC(=O)[C@@]1(C)C[C@@H]1[C@@H](NC(=O)[C@@]1(C)C[C@@H]1[C@@H](NC(=O)[C@@]1(C)C[C@@H]1[C@@H](NC(=O)[C@@]1(C)C[C@@H]1[C@@H](NC(=O)OCc1ccccc1)c1ccccc1)c1ccccc1)c1ccccc1)c1ccccc1
activity change, positive = activation: inactive

molecule: COC(=O)c1ccc(C(/C=C/[C@@H](C)C(=O)N(C)Cc2ccccc2)NC(=O)OCc2ccccc2)cc1 (stereo partly drawn)
activity change, positive = activation: inactive

molecule: CCC(=O)[C@]12O[C@@]3(C4C(=O)OCCC41)N(CC)C(C)=C(C(=O)OC)C(c1ccccc1)N3C2=O (stereo partly drawn)
activity change, positive = activation: -34.2% [at 11.4 µM] (inactive)

Item `COC(=O)[C@@H]1C[C@@]2(O)[C@@H](O)[C@@H](O)[C@@H](O)C[C@H]2N1CC(c1ccccc1)c1ccccc1` has what recorded activity change, positive = activation?
inactive

Suppose we examine the molecule `O=C1[C@H]2[C@H]3[C@H](O)[C@H](O)C/C(=N/OC[C@@H](O)COCc4ccco4)[C@H]3CC[C@@H]2C(=O)N1Cc1ccccc1` ; what activity change, positive = activation value has been reported?
-57.9% [at 11.4 µM] (inactive)

Quick check: activity change, positive = activation of COC(=O)C1=C(C)N(Cc2ccccc2)[C@]23O[C@](C(=O)OC)(C(=O)N2C1c1ccccc1)C1CCOC(=O)C13 (stereo partly drawn) ?
-70.4% [at 11.4 µM] (inactive)

Reported activity change, positive = activation for `O=C(N/N=C1/C[C@@H](O)[C@@H](O)[C@@H]2[C@@H]3C(=O)N(Cc4ccc5c(c4)OCO5)C(=O)[C@H]3CC[C@H]12)OCc1ccccc1` : what is it?
-89.7% [at 11.4 µM] (inactive)

Tell me the measured activity change, positive = activation of CCC12C=C(/C=C/c3ccccc3)C(CC)(C1)C(c1ccccc1)CC2=O (stereo not drawn) , please.
-32.8% [at 11.4 µM] (inactive)

Consider the molecule CC(=O)OCC1OC(C#Cc2ccc(C)cc2C)C=CC1OC(C)=O (stereo not drawn) and give its measured activity change, positive = activation.
-83.4% [at 11.4 µM] (inactive)

Entry COC(=O)c1ccc(C(NC(=O)OCc2ccccc2)/C(C)=C/[C@@H](C)C(=O)NCCN2CCOCC2)cc1 (stereo partly drawn) has what activity change, positive = activation?
inactive

Need activity change, positive = activation, item COC(=O)c1ccc(C(NC(=O)OCc2ccccc2)/C(C)=C/[C@@H](C)C(=O)N[C@@H](CO)Cc2ccccc2)cc1 (stereo partly drawn)
inactive

Query (molecule): `N#CCC(=O)NC(=O)NCC1CC1` ; field requested: activity change, positive = activation
inactive

Give its activity change, positive = activation value. Item: `CCC1=C2CC[C@H]3C(=O)N(C)C(=O)[C@H]3[C@H]2[C@@]2(Cc3ccccc3)C(=NCCOC)OC(=O)N2C1=O`
inactive

Any idea what its activity change, positive = activation is? The molecule is `COC(=O)[C@@H]1CC[C@H](C)[C@@H](c2ccc(C)cc2)N1C(=O)c1ccc(/C=N\O[C@@H](C)c2cn([C@H]3COC[C@H]3O)nn2)cc1`
-43.4% [at 11.4 µM] (inactive)

So what's the measured activity change, positive = activation for this one? `COC(=O)C/C=C\[C@@H](C)[C@@H](/C=N\OC[C@@H]1O[C@H](c2ccccc2)C=C[C@@H]1Oc1ccc(OC)cc1)NS(=O)(=O)c1ccc(C)cc1`
-96.1% [at 11.4 µM] (inactive)

For the molecule COc1ccccc1/C=C/C1=CC2(C)CC1(C)C(c1ccccc1OC)CC2=O (stereo not drawn) , what activity change, positive = activation is on record?
-56.9% [at 11.4 µM] (inactive)

Would you kindly share the measured activity change, positive = activation for `O=C1CCCC=C1[C@@H](O)COCc1ccccc1` ?
-31.3% [at 11.4 µM] (inactive)

Report activity change, positive = activation for `COC(=O)[C@@H]1C[C@H]2CC[C@H](O)C[C@H]2N1Cc1c(F)cccc1Cl` please.
inactive

Any idea what its activity change, positive = activation is? The molecule is `CCC1=C(OC(=O)N(CC)CC)N2C(=O)OC(=NCC(=O)OC)[C@]2(Cc2ccccc2)[C@H]2C1=CC[C@H]1C(=O)NC(=O)[C@H]12`
inactive

Could you share which activity change, positive = activation value was measured for `C/C(CCN1CCCCc2nc(C)c(C)cc21)=N\O[C@@H](C)CN1CCCc2nc(C)c(C)cc21` ?
-61.2% [at 11.4 µM] (inactive)
